# key: entry, value: pKd
Molecular target: T1, TTD–PHD of UHRF1 (residues 134–366) (human, UniProt Q96T88 134-366)
T1 sequence (looked up): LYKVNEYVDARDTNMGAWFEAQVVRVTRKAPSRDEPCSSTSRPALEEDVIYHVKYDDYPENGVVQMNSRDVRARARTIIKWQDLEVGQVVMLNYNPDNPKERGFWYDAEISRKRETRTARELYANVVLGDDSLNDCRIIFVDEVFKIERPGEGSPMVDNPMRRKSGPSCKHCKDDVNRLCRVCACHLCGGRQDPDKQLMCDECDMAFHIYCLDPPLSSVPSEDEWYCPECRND
Test: ITC; 0.05 mM protein in the cell, 0.5 mM protein or peptide in the syringe, iTC200, 18 °C, 10 mM HEPES pH 8.0, 100 mM NaCl
Details: both partners purified
# pKd: negative log10 of molar concentration; output just the value

binder: Spacer of UHRF1 (residues 587–674) (domain or fragment, human, UniProt Q96T88 587-674, looked up, also called the Spacer; Spacer peptide) PGPWTKEGKDRIKKLGLTMQYPEGYLEALANREREKENSKREEEEQQEGGFASPRTGKGKWKRKSAGGGPSRAGSPRRTSKKTKVEPY
recorded metric: pKd
result: 4.97

Then this binder:
Answer with reported pKd of ARTKQTARKSTGGKAPR (peptide, UniProt P68431 2-18, looked up, trimethyl-lysine at K9, histone H3, residues 1–17) [H3K9me3 peptide (1–17)]
6.82
